# credit: patent US20150259344A1

// reported activity at 1 µM per item
Biological target: human α7 nAChR (Homo sapiens)
Construct: expressed in transfected cells
Assay: Evaluation of PAM activity with human α7 nACh receptor stably expressing cells (aequorin luminescence, FDSS7000)
Assay type: cell-based
Conditions: 1 μM test compound (values marked *, footnote of Table 25); ACh at EC20; ratio of RLU (Max-Min) to control wells; read-out: α7PAM (%) @1 μM
VALUE TYPE: activity at 1 µM (%)

1. CC(C)(F)C(=O)N[C@H]1CC[C@@H](n2cnc(-c3cc(Cl)c(F)cc3F)c2)CC1 [Example 318] : 179
2. CC(C)(C)C(=O)N[C@H]1CC[C@@H](n2cnc(-c3cccc(C(F)(F)F)c3)c2C#N)CC1 [Example 200] : 180
3. CC(C)(F)C(=O)N[C@H]1CC[C@@H](n2cnc(-c3ccc(OC(F)(F)F)c(F)c3)c2)CC1 [Example 296] : 589
4. O=C(C1CCC(F)(F)CC1)N1[C@@H]2CC[C@H]1C[C@@H](n1cnc(-c3cc(F)ccc3F)c1)C2 [Example 430] : 110
5. O=C(NC1CCCCC1)N1[C@@H]2CC[C@H]1C[C@@H](n1cnc(-c3cc(F)ccc3F)c1)C2 [Example 389] : 163
6. O=C(NCC1CCCCC1)N1CCC(n2cnc(-c3c(F)cccc3F)c2)CC1 [Example 11] : 116

###

// values below are reported activity at 10 µM
Biological target: human α7 nAChR (Homo sapiens, UniProt P36544)
Construct: expressed in transfected cells
Sequence (P36544 23-502): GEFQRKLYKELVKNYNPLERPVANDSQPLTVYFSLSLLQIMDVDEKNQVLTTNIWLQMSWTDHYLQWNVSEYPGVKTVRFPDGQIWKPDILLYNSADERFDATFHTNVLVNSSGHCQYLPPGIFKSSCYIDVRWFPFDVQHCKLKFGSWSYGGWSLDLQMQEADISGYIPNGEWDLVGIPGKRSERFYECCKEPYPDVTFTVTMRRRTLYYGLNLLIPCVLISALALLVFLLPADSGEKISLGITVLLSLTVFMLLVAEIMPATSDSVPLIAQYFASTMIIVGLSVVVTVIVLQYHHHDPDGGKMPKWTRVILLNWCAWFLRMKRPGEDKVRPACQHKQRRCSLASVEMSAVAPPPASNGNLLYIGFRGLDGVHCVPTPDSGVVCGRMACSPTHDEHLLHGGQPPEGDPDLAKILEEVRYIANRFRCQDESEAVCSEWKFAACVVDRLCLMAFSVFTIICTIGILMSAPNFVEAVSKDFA
Assay: Evaluation of PAM activity with human α7 nACh receptor stably expressing cells (aequorin luminescence, FDSS7000)
Type: cell-based
Details: GH4-C1, 10 μM test compound; ratio of RLU (Max-Min) of test wells to control wells after ACh at EC20; GH4C1 cells expressing human α7 nAChR and aequorin; read-out: α7PAM (%) @10 μM
VALUE TYPE: activity at 10 µM (%)

1) CC(C)(C)NC(=O)[C@H]1CC[C@H](n2cnc(-c3ccccc3)c2)CC1 : 113
2) O=C(NC1CCCCC1)[C@H]1CC[C@H](n2cnc(-c3ccccc3)c2Cl)CC1 : 102
3) O=C(NC1CCCCC1)[C@H]1CC[C@H](n2cnc(-c3ccccc3)c2)CC1 : 149
4) CC(C)(C)NC(=O)[C@H]1CC[C@H](n2cnc(-c3ccccc3)c2Cl)CC1 : 130
5) FC(F)(F)c1cc(N[C@H]2CC[C@@H](n3cnc(-c4ccccc4)c3)CC2)ncn1 : 631

###

Target: human α7 nAChR (Homo sapiens, UniProt P36544)
Construct: expressed in transfected cells
Assay: Evaluation of PAM activity with human α7 nACh receptor stably expressing cells (aequorin luminescence, FDSS7000)
Type: cell-based
Conditions: 10 μM test compound; ACh at EC20; ratio of RLU (Max-Min) to control wells; read-out: α7PAM (%) @10 μM
Listed below: activity at 10 µM values for each entry.
VALUE TYPE: activity at 10 µM (%)

1) CC(C)(F)C(=O)N[C@H]1CC[C@@H](n2cnc(-c3cccc(F)c3F)c2C#N)CC1 : 351
2) O=C(N[C@H]1CC[C@@H](n2cnc(-c3cccc(C(F)(F)F)c3)c2Cl)CC1)C1CCC1 : 142
3) CC(C)(C)NC(=O)N1CCC(n2cnc(-c3ccc(F)cc3)c2)CC1 : 160
4) O=C(C1CCC(F)(F)CC1)N1CCC(n2cnc(-c3ccccc3)c2)CC1 : 292
5) N#Cc1c(-c2ccc(F)cc2F)ncn1C1CCN(C(=O)C2CCC(F)(F)CC2)CC1 : 275
6) O=C(C1CCC(F)(F)CC1)N1[C@@H]2CC[C@H]1C[C@H](n1cnc(-c3cc(F)ccc3F)c1Cl)C2 : 730
7) CCOc1ccc(-c2cn(C3CCN(C(=O)NC4CC5CCC4C5)CC3)cn2)cc1 (centres unmarked) : 318
8) N#Cc1c(-c2ccc(F)cc2)ncn1C1CCN(C(=O)C2CCC(F)(F)CC2)CC1 : 644

###

Target: human α7 nAChR (Homo sapiens)
Construct: expressed in transfected cells
Experiment: Evaluation of PAM activity with human α7 nACh receptor stably expressing cells (aequorin luminescence, FDSS7000)
Format: cell-based
Conditions: 10 μM test compound; ACh at EC20; ratio of RLU (Max-Min) to control wells; read-out: α7PAM (%) @10 μM
activity at 10 µM: recorded values
VALUE TYPE: activity at 10 µM

1) CC(C)(C)C(=O)N[C@H]1CC[C@@H](n2cnc(-c3ccc(Cl)cc3)c2)CC1 : 411%
2) CC(C)(C)NC(=O)N1CCC(n2cnc(-c3ccccc3)c2C2CC2)CC1 : 457%
3) O=C(NC1CCC(F)(F)CC1)N1CCC(n2cnc(-c3cccs3)c2)CC1 : 466%
4) CC(C)(F)C(=O)N[C@H]1CC[C@@H](n2cnc(-c3cc(OC(F)(F)F)ccc3F)c2C#N)CC1 : 290%
5) CC(C)(F)C(=O)N[C@H]1CC[C@@H](n2cnc(-c3ccc(OC(F)(F)F)cc3)c2)CC1 : 834%
6) O=C(N[C@H]1CC[C@@H](n2cnc(-c3ccc(C(F)(F)F)cc3)c2Cl)CC1)C1CCC1 : 498%
7) N#Cc1c(-c2ccccc2F)ncn1C1CCN(C(=O)C2CC(F)(F)C2)CC1 : 569%
8) CC(C)(F)C(=O)N[C@H]1CC[C@@H](n2cnc(-c3ccccc3)c2C#N)CC1 : 637%

###

Target: human α7 nAChR (Homo sapiens, UniProt P36544)
Construct: expressed in transfected cells
Test: Evaluation of PAM activity with human α7 nACh receptor stably expressing cells (aequorin luminescence, FDSS7000)
Format: cell-based
Details: 10 μM test compound; ACh at EC20; ratio of RLU (Max-Min) to control wells; read-out: α7PAM (%) @10 μM
VALUE TYPE: activity at 10 µM

1) O=C(NC1CCC(F)(F)CC1)N1CCC(n2cnc(-c3cccc(OC(F)F)c3)c2)CC1 : 707%
2) O=C(C1CCC(F)(F)CC1)N1CCCC(n2cnc(-c3ccc(F)cc3)c2)CC1 (stereo not shown) : 297%
3) CC(C)(F)C(=O)N[C@H]1CC[C@@H](n2cnc(-c3ccc(Cl)cc3)c2)CC1 : 787%
4) O=C(C1CCOCC1)N1[C@@H]2CC[C@H]1C[C@@H](n1cnc(-c3cc(F)ccc3F)c1Cl)C2 : 235%

###

Attribute: activity at 10 µM
Biological target: human α7 nAChR (Homo sapiens, UniProt P36544)
Construct: expressed in transfected cells
Assay: Evaluation of PAM activity with human α7 nACh receptor stably expressing cells (aequorin luminescence, FDSS7000)
Type: cell-based
Conditions: 10 μM test compound; ACh at EC20; ratio of RLU (Max-Min) to control wells; read-out: α7PAM (%) @10 μM
Protocol: Evaluation of PAM activity with human α7 nACh receptor stably expressing cells (1) Human α7 nAChR stably expressing cells Human α7 nAChR stably expressing cells were generated and cultured. Thus, the cells were subcultured. Seven days after subculturing, the cells were treated with TrypLE Express to collect them when they were about 80% confluent. […] FDSS7000 (Hamamatsu Photonics) was used to detect the luminescence signal evoked by α7 nAChR stimulation. […]
VALUE TYPE: activity at 10 µM (%)

1. O=C(C1CCC(F)(F)CC1)N1CCC(n2cnc(-c3ccc(OC(F)F)cc3)c2)CC1 : 572
2. O=C(NC1CCOCC1)[C@H]1CC[C@@H](n2cnc(-c3cccc(F)c3F)c2Cl)CC1 : 962
3. O=C(C1CCC(F)(F)CC1)N1[C@@H]2CC[C@H]1C[C@@H](n1cnc(-c3ccccc3F)c1)C2 : 305
4. CC(C)(C)NC(=O)N1CCC(n2cnc(-c3ccccc3)c2CO)CC1 : 153
5. O=C(NC1CCCCC1)N1CCC(n2cnc(-c3c(F)cccc3F)c2)CC1 : 597
6. CC(C)(F)C(=O)N[C@H]1CC[C@@H](n2cnc(-c3cccc(F)c3)c2C#N)CC1 : 192
7. O=C(NC1CCC(F)(F)CC1)N1CCC(n2cnc(-c3ccc4c(c3)CCO4)c2)CC1 : 880
8. CC(C)(F)C(=O)N[C@H]1CC[C@@H](n2cnc(-c3ccc(F)cc3)c2Cl)CC1 : 791
9. Cc1c(-c2ccc(F)cc2)ncn1C1CCN(C(=O)NC2CCOCC2)CC1 : 420
10. N#Cc1c(-c2ccc(F)cc2F)ncn1[C@@H]1C[C@H]2CC[C@@H](C1)N2C(=O)C1CCC(F)(F)CC1 : 384
11. O=C(C1CCOCC1)N1[C@@H]2CC[C@H]1C[C@H](n1cnc(-c3cc(F)ccc3F)c1Cl)C2 : 390
12. O=C(NC1CCOCC1)N1CCC(n2cnc(-c3cccc(F)c3)c2Cl)CC1 : 899
13. O=C(NC1CCCCC1)N1CCC(n2cnc(-c3ccccc3)c2C2CC2)CC1 : 576
14. O=C(C1CCC(F)(F)CC1)N1[C@@H]2CC[C@H]1C[C@@H](n1cnc(-c3ccc(F)cc3F)c1)C2 : 308
15. O=C(Nc1ccccc1F)N1CCC(n2cnc(-c3ccc(F)c(F)c3)c2)CC1 : 139
16. CC(C)(F)C(=O)N[C@H]1CC[C@@H](n2cnc(-c3ccc(F)cc3F)c2C#N)CC1 : 377
17. CCOc1ccc(-c2cn(C3CCN(C(=O)NC4CCCCC4)CC3)cn2)cc1 : 403
18. O=C(C1CCC(F)(F)CC1)N1CCC(n2cnc(-c3ccccc3)c2Cl)CC1 : 945
19. CC(C)(F)C(=O)N[C@H]1CC[C@@H](n2cnc(-c3ccc(OC(F)(F)F)c(F)c3)c2Cl)CC1 : 860
20. O=C(C1CCC(F)(F)CC1)N1[C@@H]2CC[C@H]1C[C@H](n1cnc(-c3ccccc3F)c1)C2 : 276
21. COc1ccc(-c2ncn([C@H]3CC[C@@H](NC(=O)C4CCC4)CC3)c2Cl)cc1Cl : 269
22. O=C(NC1CCOCC1)N1CCC(n2cnc(-c3ccc(C(F)(F)F)cc3)c2)CC1 : 378
23. CC(C)(F)C(=O)N1CCC(n2cnc(-c3ccc(F)cc3)c2)CC1 : 146
24. O=C(NC1CCOCC1)N1CCC(n2cnc(-c3cccc(F)c3)c2)CC1 : 175
25. Cc1ccc(-c2cn(C3CCN(C(=O)NC4CCCCC4)CC3)cn2)s1 : 572
26. Cc1c(-c2ccc(F)cc2)ncn1[C@H]1CC[C@@H](NC(=O)C(C)(C)C)CC1 : 230
27. COc1ccc(-c2ncn(C3CCN(C(=O)C4CCC(F)(F)CC4)CC3)c2Cl)cc1 : 700
28. CC(C)(F)C(=O)N[C@H]1CC[C@@H](n2cnc(-c3cc(Cl)ccc3F)c2)CC1 : 398
29. O=C(NC1CCCCC1)N1[C@@H]2CC[C@H]1C[C@H](n1cnc(-c3cccc(F)c3F)c1)C2 : 197
